Molecular target: Zap1 (UniProt P47043)
Sequence: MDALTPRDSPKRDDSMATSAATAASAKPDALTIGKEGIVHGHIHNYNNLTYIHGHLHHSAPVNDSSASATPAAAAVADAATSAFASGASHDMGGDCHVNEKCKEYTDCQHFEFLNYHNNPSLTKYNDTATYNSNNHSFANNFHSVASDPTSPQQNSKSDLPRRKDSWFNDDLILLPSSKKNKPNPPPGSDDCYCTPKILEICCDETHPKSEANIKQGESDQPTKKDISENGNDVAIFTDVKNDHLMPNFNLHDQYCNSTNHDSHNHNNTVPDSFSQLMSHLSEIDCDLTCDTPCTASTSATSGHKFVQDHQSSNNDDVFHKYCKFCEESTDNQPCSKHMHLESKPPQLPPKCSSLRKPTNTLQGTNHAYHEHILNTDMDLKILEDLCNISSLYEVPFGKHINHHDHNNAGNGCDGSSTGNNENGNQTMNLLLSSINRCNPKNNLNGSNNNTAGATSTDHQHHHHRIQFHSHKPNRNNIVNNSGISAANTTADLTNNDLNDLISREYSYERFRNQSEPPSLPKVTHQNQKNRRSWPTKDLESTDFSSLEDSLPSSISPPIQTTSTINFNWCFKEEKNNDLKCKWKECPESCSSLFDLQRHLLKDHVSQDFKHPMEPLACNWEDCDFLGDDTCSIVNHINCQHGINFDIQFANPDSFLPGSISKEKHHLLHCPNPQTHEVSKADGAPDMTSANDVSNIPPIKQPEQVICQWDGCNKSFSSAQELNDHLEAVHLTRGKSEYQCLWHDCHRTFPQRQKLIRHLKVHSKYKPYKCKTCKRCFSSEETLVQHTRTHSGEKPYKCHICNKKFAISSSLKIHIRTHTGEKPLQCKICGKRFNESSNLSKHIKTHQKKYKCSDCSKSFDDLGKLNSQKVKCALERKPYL
Assay: PBM E-score (8-mer binding enrichment) (E-score (-0.5 to 0.5)); higher = stronger / more preferred TF binding
Conditions: protein concentration: 200 nM; construct: GST-full length
Over roughly 33,000 sequences, “E-score (-0.5 to 0.5)” has its median near -0.021; the highest 2% begin near 0.32. This excerpt belongs to a sample that is enriched for the highest values.
Output schema: class label derived from PBM E-score. Mapping: bucket 1: < -0.2; bucket 2: ≥ -0.2 and < -0.04; bucket 3: ≥ -0.04

Category lookup for the sequence `TTAGAGAA`
bucket 2

----------
Target: Zap1 (UniProt P47043)
Sequence: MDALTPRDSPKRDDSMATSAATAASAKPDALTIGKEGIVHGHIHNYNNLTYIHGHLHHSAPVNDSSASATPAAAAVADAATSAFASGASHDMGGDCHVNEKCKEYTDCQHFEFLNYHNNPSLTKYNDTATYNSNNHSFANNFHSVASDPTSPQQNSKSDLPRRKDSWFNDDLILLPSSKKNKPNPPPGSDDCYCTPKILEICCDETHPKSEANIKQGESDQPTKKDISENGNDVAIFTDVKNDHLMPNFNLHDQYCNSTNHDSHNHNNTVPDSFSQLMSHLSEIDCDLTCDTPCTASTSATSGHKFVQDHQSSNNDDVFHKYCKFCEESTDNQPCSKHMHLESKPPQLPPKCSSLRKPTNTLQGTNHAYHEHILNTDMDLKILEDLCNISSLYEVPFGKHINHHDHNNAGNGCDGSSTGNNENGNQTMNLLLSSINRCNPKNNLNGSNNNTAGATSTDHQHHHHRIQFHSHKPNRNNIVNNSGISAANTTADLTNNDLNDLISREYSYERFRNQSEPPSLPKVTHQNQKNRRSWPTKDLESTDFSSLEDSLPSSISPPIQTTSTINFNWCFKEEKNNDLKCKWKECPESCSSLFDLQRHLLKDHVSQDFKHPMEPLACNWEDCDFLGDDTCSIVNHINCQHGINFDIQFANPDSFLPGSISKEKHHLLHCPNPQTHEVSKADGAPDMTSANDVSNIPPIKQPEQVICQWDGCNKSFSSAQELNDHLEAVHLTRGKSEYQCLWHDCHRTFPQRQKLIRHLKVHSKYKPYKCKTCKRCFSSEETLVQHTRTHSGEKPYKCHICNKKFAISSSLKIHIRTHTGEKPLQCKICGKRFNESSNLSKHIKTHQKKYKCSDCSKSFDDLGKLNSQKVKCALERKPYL
Experiment: PBM E-score (8-mer binding enrichment) (E-score (-0.5 to 0.5)); higher = stronger / more preferred TF binding
Details: protein concentration: 200 nM; construct: GST-full length
Whole data set: some 33,000 sequences, median “E-score (-0.5 to 0.5)” near -0.021, cut for the highest 2% near 0.32. Many of the other results were omitted from the sample, so the highest values are more common in it than they were.
# reported PBM E-score; entries follow
# answer = number (no unit)

Would you please look over these solved cases?
[
  {
    "seq-text": "GCCACACA",
    "PBM E-score": -0.0586
  },
  {
    "seq-text": "GTGGATGA",
    "PBM E-score": 0.014
  },
  {
    "seq-text": "GGCATGTA",
    "PBM E-score": -0.0887
  }
]

Documented PBM E-score of `AGCTACAT` : -0.263

Documented PBM E-score of `GGAACAAA` : 0.111

----------
Target: Zap1 (UniProt P47043)
Sequence: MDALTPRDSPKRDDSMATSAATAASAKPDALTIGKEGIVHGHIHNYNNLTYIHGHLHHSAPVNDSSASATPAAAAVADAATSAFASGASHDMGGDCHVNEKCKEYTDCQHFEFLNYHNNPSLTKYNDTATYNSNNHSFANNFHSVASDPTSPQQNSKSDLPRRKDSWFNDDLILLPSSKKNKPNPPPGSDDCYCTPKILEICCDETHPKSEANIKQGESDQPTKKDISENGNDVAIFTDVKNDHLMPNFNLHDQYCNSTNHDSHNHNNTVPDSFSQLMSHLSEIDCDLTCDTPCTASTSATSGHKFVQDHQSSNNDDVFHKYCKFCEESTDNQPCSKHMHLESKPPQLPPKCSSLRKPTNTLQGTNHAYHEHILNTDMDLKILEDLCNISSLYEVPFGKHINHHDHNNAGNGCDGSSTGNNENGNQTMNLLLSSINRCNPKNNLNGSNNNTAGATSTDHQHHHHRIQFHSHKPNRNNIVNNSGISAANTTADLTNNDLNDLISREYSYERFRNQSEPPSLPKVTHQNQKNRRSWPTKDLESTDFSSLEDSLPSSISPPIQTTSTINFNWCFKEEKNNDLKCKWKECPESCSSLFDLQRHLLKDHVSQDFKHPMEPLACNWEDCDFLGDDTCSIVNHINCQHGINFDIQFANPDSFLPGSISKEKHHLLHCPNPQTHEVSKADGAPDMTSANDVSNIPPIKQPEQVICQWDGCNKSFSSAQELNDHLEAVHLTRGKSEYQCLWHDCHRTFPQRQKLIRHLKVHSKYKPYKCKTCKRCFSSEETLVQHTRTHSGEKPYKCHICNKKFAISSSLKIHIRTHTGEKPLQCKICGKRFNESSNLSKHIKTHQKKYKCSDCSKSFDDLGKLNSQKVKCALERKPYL
Test: PBM E-score (8-mer binding enrichment) (E-score (-0.5 to 0.5)); higher = stronger / more preferred TF binding
Conditions: protein concentration: 200 nM; construct: GST-full length
In all, about 33,000 sequences were measured (“E-score (-0.5 to 0.5)”: median about -0.021, highest 2% from about 0.32 on). The sample as a whole holds a higher share of the highest values than the screen did.
reported-property: PBM E-score
# answer = number (no unit)

Would you please look over these solved cases?
[
  {
    "seq-text": "AAGGAGGA",
    "PBM E-score": -0.291
  },
  {
    "seq-text": "AGGGGGTA",
    "PBM E-score": 0.0442
  },
  {
    "seq-text": "AACCCCAT",
    "PBM E-score": 0.359
  },
  {
    "seq-text": "GCTGCTTA",
    "PBM E-score": 0.0693
  },
  {
    "seq-text": "CAAAACCC",
    "PBM E-score": 0.349
  },
  {
    "seq-text": "ACAACCAA",
    "PBM E-score": 0.267
  },
  {
    "seq-text": "GGTTAAAC",
    "PBM E-score": 0.356
  },
  {
    "seq-text": "TGAACACA",
    "PBM E-score": 0.0543
  },
  {
    "seq-text": "AACCAGAT",
    "PBM E-score": 0.142
  },
  {
    "seq-text": "ACCCAAAG",
    "PBM E-score": 0.271
  }
]

Documented PBM E-score of `AAGGTTAG` : 0.35

Documented PBM E-score of `GCGTCGCC` : -0.162

Documented PBM E-score of `AAACTTGG` : 0.124

Documented PBM E-score of `AAATTCCT` : -0.0586

Documented PBM E-score of `CAGATTAC` : 0.0563
